Tested on: IL-12-induced IFN-γ secretion in NK92 cells
assay_comment: Inhibition of IL-12-induced IFN-γ secretion in NK92 cells (ELISA)
Format: cell-based
experimental_conditions: Homo sapiens, IL-12, 24 hours, read-out: IC50 (NK92_IL12/IFN-γ)
Quick list: pIC50 per entry.
# log scale: pIC50 equals minus log10 of the concentration in mol/L

Some molecules with recorded pIC50:
[2H]C([2H])([2H])n1cnc(-c2cccc(Nc3cc(NC(=O)C4CC4)nnc3C(=O)NC)c2OC)n1 ... 7.89
[2H]C([2H])([2H])NC(=O)c1nnc(NC(=O)C2CC2)cc1Nc1cccc(-c2ncn(C([2H])([2H])[2H])n2)c1OC ... 7.80
[2H]C([2H])([2H])NC(=O)c1nnc(NC(=O)[C@H]2CC2(F)F)cc1Nc1cccc(-c2ncn(C)n2)c1OC ... 7.13
[2H]C([2H])([2H])NC(=O)c1nnc(NC(=O)[C@@H]2CC2(F)F)cc1Nc1cccc(-c2ncn(C)n2)c1OC ... 7.28
[2H]C([2H])([2H])NC(=O)c1nnc(NC(=O)C2CC2)cc1Nc1cccc(-c2ncn(C)n2)c1OC([2H])([2H])[2H] ... 7.96
[2H]C([2H])([2H])Oc1c(Nc2cc(NC(=O)C3CC3)nnc2C(=O)NC)cccc1-c1ncn(C)n1 ... 7.85
CNC(=O)c1nnc(NC(=O)[C@@H]2CC2(F)F)cc1Nc1cccc(-c2ncn(C)n2)c1OC ... 7.33

Let us examine a further case.
State its pIC50 for this molecule: [2H]C([2H])([2H])NC(=O)c1nnc(NC(=O)C2CC2)cc1Nc1cccc(-c2ncn(C)n2)c1OC [BMS-986165, reference compound]
7.77
